# study.target: CCR8 (Homo sapiens (Human))
# Sequence (P51685 whole entry): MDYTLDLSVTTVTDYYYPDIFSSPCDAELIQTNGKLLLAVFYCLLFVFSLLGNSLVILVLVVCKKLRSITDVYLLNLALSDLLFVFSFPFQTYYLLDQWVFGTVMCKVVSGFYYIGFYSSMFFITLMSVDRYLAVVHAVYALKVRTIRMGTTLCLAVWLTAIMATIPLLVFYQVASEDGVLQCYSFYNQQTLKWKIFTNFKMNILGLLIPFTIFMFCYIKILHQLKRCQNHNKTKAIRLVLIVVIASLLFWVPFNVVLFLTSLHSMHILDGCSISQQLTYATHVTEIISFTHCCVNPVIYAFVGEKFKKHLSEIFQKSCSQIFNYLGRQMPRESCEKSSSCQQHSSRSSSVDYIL
# protocol.details: Calcium flux on Chem-1 cells expressing the chemokine receptor (FLIPR TETRA), antagonist mode
# condition.description: antagonist activity, reference agonist at AC80
metric: IC50 (nM)

> print(dat)
                                   compound  measurement
1  Cc1ccc(C(Nc2c(Nc3cccc(C(=O)N(C)C)c3O)c(=O)c2=O)C2CCCS2)o1 (single isomer, unassigned) [2 (diastereoisomer 2)]          620

---

# study.target: CXCR3 (Homo sapiens (Human))
# Sequence (P49682 whole entry): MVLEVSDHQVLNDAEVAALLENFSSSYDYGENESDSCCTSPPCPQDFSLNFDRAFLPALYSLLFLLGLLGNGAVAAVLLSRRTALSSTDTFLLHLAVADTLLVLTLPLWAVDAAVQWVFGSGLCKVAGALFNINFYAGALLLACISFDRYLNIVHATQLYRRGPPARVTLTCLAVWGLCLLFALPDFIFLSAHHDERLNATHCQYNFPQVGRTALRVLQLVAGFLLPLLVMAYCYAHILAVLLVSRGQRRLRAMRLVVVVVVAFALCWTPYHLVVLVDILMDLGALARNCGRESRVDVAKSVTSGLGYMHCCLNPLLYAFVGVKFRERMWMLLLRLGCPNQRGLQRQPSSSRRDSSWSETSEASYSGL
# protocol.details: Calcium flux on Chem-1 cells expressing the chemokine receptor (FLIPR TETRA), antagonist mode
# condition.description: IC50 CXCR3, antagonist activity, reference agonist at AC80
Rule: IC50 below 100 nM gives criterion met, anything at or above gives criterion not met.

compound	assigned.label
Cc1ccc(C(Nc2c(Nc3cccc(C(=O)N(C)C)c3O)c(=O)c2=O)C2(C)CCCO2)o1 (single isomer, unassigned) [1 (diastereoisomer 2)]	criterion met
COC(=O)[C@H]1CCCN1C(=O)c1cccc(Nc2c(NC(c3ccc(C)o3)C3CCCS3)c(=O)c2=O)c1O (single isomer, unassigned) [Example 6]	criterion not met
Cc1ccc(C(Nc2c(Nc3cccc(C(=O)N(C)C)c3O)c(=O)c2=O)C2(C)CCCO2)o1 (single isomer, unassigned) [Example 1 (Enantiomer 2 of diastereoisomer 2)]	criterion met
Cc1ccc(C(Nc2c(Nc3ccc(Cl)c(S(=O)(=O)N4CCN(C)CC4)c3O)c(=O)c2=O)C2CCCS2)o1 (single isomer, unassigned; (-))	criterion not met
COC(=O)CN(C)C(=O)c1cccc(Nc2c(N[C@@H](c3ccc(C)o3)C3CCCS3)c(=O)c2=O)c1O (single isomer, unassigned)	criterion not met
COC(=O)[C@H]1CCCN1C(=O)c1cccc(Nc2c(NC(c3ccc(C)o3)C3CCCS3)c(=O)c2=O)c1O (single isomer, unassigned) [Example 20]	criterion not met
Cc1ccc([C@H](Nc2c(Nc3cccc(C(=O)N(C)CC(F)(F)F)c3O)c(=O)c2=O)C2CCCS2)o1 (single isomer, unassigned; (-))	criterion not met
